Test: Kinetic solubility determination in PBS
Assay type: physicochemical
Conditions: phosphate buffered saline (PBS 1×), 21 °C, pH 7.4, aqueous buffer, kinetic from dmso stock, PBS 1X pH 7.4, 2.0% DMSO, 24 hour incubation at ambient temperature, read-out: Solubility in aqueous PBS Buffer (1X, pH 7.4), ug/mL
Property label: solubility at 24 h

Challenge: Requested read-out: solubility at 24 h. Entry: `CC[C@H](C)[C@H](NC(=O)CC(C)(C)C(=O)O)C(=O)NCC(=O)N1c2ccccc2C[C@H]1C(=O)NCc1nn[nH]n1`
Response given: > 407 µg/mL

Challenge: Further, for `CC[C@H](C)[C@H](NC(=O)Cc1ccccn1)C(=O)NCC(=O)N1c2ccccc2C[C@H]1C(=O)NCc1nn[nH]n1` ?
Response given: > 80 µg/mL
